target: hOGG1 (Homo sapiens); assay: Biochemical fluorescence assay to measure enzymatic activity of hOGG1 (OGG1/APEX IC50); set-up: Protein His-hOGG1 (12-323) was prepared; His (N); host or cells: E. coli; conditions: 1 nM OGG1+2 nM APEX+6 nM dsDNA (8-oxo-dG substrate); pH 7.5; RT 40 min; read-out: OGG1/APEX IC50
Sequence (O15527 12-323): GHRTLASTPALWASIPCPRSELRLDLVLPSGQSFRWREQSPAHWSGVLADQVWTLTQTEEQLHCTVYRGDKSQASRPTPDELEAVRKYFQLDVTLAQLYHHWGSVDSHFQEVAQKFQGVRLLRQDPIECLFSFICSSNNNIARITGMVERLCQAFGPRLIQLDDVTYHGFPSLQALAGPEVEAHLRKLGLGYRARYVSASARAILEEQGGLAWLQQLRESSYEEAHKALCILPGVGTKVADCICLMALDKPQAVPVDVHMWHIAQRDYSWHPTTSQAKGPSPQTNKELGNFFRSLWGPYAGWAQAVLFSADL
pIC50: −log10 of the molar value.
Recorded pIC50, one value per entry.
Reported property: pIC50

# Record smiles, Target, Test value
records = [
    ("CCOC(=O)c1cccc2c1CN([C@H]1CC[C@@H](C(=O)Nc3ccc(C)c(OC)c3)CC1)C2=O", "hOGG1 (Homo sapiens)", "< 5.00"),
    ("COc1cc(NC(=O)[C@H]2CC[C@@H](N3Cc4c(C)ccc(CN(C)C)c4NC3=O)CC2)ccc1C", "hOGG1 (Homo sapiens)", "> 7.00"),
    ("COc1cc(NC(=O)[C@H]2CC[C@@H](N3Cc4c(C)cc(CN5CC[C@@H](O)C5)cc4C3=O)CC2)ccc1C", "hOGG1 (Homo sapiens)", "> 7.00"),
    ("COc1cc(NC(=O)[C@@H]2CC[C@@H](N3Cc4c(C)cc(NCCN(C)C)cc4C3=O)C2)ccc1C", "hOGG1 (Homo sapiens)", "< 5.00"),
    ("COCc1ccc(C)c2c1NC(=O)N([C@H]1CC[C@@H](C(=O)Nc3ccc(C)c(OC)c3)CC1)C2", "hOGG1 (Homo sapiens)", "5.00 to 6.00"),
    ("Cn1c(NC(=O)[C@H]2CC[C@@H](N3Cc4c(Br)cccc4C3=O)CC2)nc2ccccc21", "hOGG1 (Homo sapiens)", "5.00 to 6.00"),
    ("COc1cc(NC(=O)[C@H]2CC[C@@H](N3Cc4c(C)ccc(OCCN(C)C)c4NC3=O)CC2)ccc1C", "hOGG1 (Homo sapiens)", "> 7.00"),
    ("COc1cc(NC(=O)[C@H]2CC[C@@H](N3Cc4c(C)ccc(N5CC(OC)C5)c4NC3=O)CC2)ccc1C", "hOGG1 (Homo sapiens)", "> 7.00"),
    ("COc1cc(NC(=O)[C@H]2CC[C@@H](N3Cc4c(Br)cc(NCCCN(C)C)cc4C3=O)CC2)ccc1C", "hOGG1 (Homo sapiens)", "> 7.00"),
    ("COc1ccc(NC(=O)[C@H]2CC[C@@H](N3Cc4c(C)cccc4C3=O)CC2)cc1C#N", "hOGG1 (Homo sapiens)", "6.00 to 7.00"),
    ("COc1ccc(NC(=O)[C@H]2CC[C@@H](N3Cc4c(C)cc(NCCN(C)C)cc4C3=O)CC2)cc1Cl", "hOGG1 (Homo sapiens)", "> 7.00"),
    ("O=C1c2cccc(Br)c2CN1[C@H]1CC[C@@H](C(=O)Nc2ccc3c(c2)OCO3)CC1", "hOGG1 (Homo sapiens)", "5.00 to 6.00"),
    ("COc1cc(NC(=O)[C@H]2CC[C@@H](N3Cc4c(C)cc(NCCN(C)C)cc4NC3=O)CC2)ccc1C", "hOGG1 (Homo sapiens)", "> 7.00"),
    ("COc1cc(NC(=O)[C@H]2CC[C@@H](N3Cc4c(ccc(C#N)c4C)NC3=O)CC2)ccc1C", "hOGG1 (Homo sapiens)", "6.00 to 7.00"),
    ("Cc1cnc(NC(=O)[C@H]2CC[C@@H](N3Cc4c(C)cccc4C3=O)CC2)s1", "hOGG1 (Homo sapiens)", "< 5.00"),
    ("COc1cc(NC(=O)[C@H]2CC[C@@H](N3Cc4c(C)cc(N5CC(OC)C5)cc4NC3=O)CC2)ccc1C", "hOGG1 (Homo sapiens)", "> 7.00"),
    ("COc1cc(NC(=O)[C@H]2CC[C@@H](N3Cc4c(C)cc(OCc5ncc[nH]5)cc4C3=O)CC2)ccc1C", "hOGG1 (Homo sapiens)", "6.00 to 7.00"),
]
